tested on: microfilaria of Dirofilaria immitis; test: Screening method to test activity against microfilaria of Dirofilaria immitis (survival, microtitre plate); format: cell-based; conditions: 72 h, read-out: median EC50 value
pEC50: −log10 of the molar value.
Kindly state pEC50 for each of the entries shown.

Give pEC50 only, for C[C@H]1OC(=O)C2(CC2)N(C)C(=O)[C@@H](Cc2ccc(C3CCOCC3)cc2)OC(=O)[C@H](CC(C)(C)F)N(C)C(=O)[C@@H](C)OC(=O)C2(CC2)N(C)C(=O)[C@@H](Cc2ccc(C3CCOCC3)cc2)OC(=O)[C@H](CC(C)(C)F)N(C)C1=O [Compound 969-34A] , using microfilaria of Dirofilaria immitis data.
5.00 to 6.00

Give pEC50 only, for C[C@H]1OC(=O)[C@H](CC2CC2)N(C)C(=O)[C@@H](Cc2ccc(N3CCOCC3)cc2)OC(=O)[C@H](CC2CC2)N(C)C(=O)[C@@H](C)OC(=O)[C@H](CC2CC2)N(C)C(=O)[C@@H](Cc2ccc(N3CCOCC3)cc2)OC(=O)[C@H](CC2CC2)N(C)C1=O , using microfilaria of Dirofilaria immitis data.
6.00 to 7.00

Give pEC50 only, for C[C@H]1OC(=O)[C@H](CC2CC2)N(C)C(=O)[C@@H](Cc2ccc(C3CCOCC3)cc2)OC(=O)[C@H](CC(C)(C)F)N(C)C(=O)[C@@H](C)OC(=O)[C@H](CC2CC2)N(C)C(=O)[C@@H](Cc2ccc(C3CCOCC3)cc2)OC(=O)[C@H](CC(C)(C)F)N(C)C1=O [Compound 7-34A] , using microfilaria of Dirofilaria immitis data.
> 7.00

Give pEC50 only, for CC(C)C[C@H]1C(=O)O[C@H](C)C(=O)N(C)[C@@H](CC2CC2)C(=O)O[C@H](Cc2ccc(N3CCOCC3)nc2)C(=O)N(C)[C@@H](CC(C)C)C(=O)O[C@H](C)C(=O)N(C)[C@@H](CC2CC2)C(=O)O[C@H](Cc2ccc(N3CCOCC3)nc2)C(=O)N1C , using microfilaria of Dirofilaria immitis data.
5.00 to 6.00

Give pEC50 only, for CC(C)C[C@H]1C(=O)O[C@H](C)C(=O)N(C)[C@@H](CC2CC2)C(=O)O[C@H](Cc2ccc(N3CCOCC3)cc2)C(=O)N(C)[C@@H](CC(C)C)C(=O)O[C@H](C)C(=O)N(C)[C@@H](CC2CC2)C(=O)O[C@H](Cc2ccc(N3CCOCC3)cc2)C(=O)N1C , using microfilaria of Dirofilaria immitis data.
6.00 to 7.00
